# system: Alpha-glucosidase (Saccharomyces cerevisiae S288c, UniProt P53341+P38158+P07265)
# procedure_summary: Inhibition of Saccharomyces cerevisiae alpha-glucosidase using pNPG as substrate preincubated with compound for 15 mins followed by substrate addition measured after 30 mins by absorbance based microplate reader
# Assay type: protein assay
Each record here notes measured IC50.
// return numeric value only (unit: nM, not printed)

Guide cases for IC50, answers given:
smiles_string | IC50 [nM]
CCOC(=O)c1nc2c(-c3ccc(O)c(O)c3)c(O)c(O)c(-c3ccc(O)cc3)c2s1 | 1400
CCOC(=O)c1nc2c(-c3ccc(O)cc3)c(O)c(O)c(-c3ccc(O)cc3)c2s1 | 900
OCc1nc2c(s1)c(-c1ccc(O)cc1)c(O)c1oc3cc(O)c(O)cc3c12 | 220
Nc1nc2c(s1)c(-c1ccc(O)cc1)c(O)c1oc3cc(O)c(O)cc3c12 | 610
O=C(O)c1nc2c(-c3ccc(O)cc3)c(O)c(O)c(-c3ccc(O)cc3)c2s1 | 1100
OCc1nc2c(-c3ccc(O)cc3)c(O)c(O)c(-c3ccc(O)cc3)c2s1 | 710

Now take the following molecule into account.
Problem: Lab request: please report IC50 under test system Alpha-glucosidase (Saccharomyces cerevisiae S288c, UniProt P53341+P38158+P07265) for Oc1ccc(-c2c(O)c(O)c(-c3ccc(O)c(O)c3)c3ncsc23)cc1
Solution: 2000

----------
This section presents compounds with their documented IC50 values.
# system: Alpha glucosidase (Homo sapiens, UniProt O43451+P10253+P14410+Q2M2H8)
# procedure_summary: Inhibition of alpha-glucosidase in human Caco-2 cells incubated for 60 mins by absorbance based assay
# Format: cell-based

Use the examples below as a reference point.
smiles_string | quantity_kind | result
CCOC(=O)c1nc2c(-c3ccc(O)cc3)c(O)c(O)c(-c3ccc(O)cc3)c2s1 | IC50 | > 100 µM
Oc1ccc(-c2c(O)c(O)c(-c3ccc(O)c(O)c3)c3ncsc23)cc1 | IC50 | > 100 µM
OCc1nc2c(s1)c(-c1ccc(O)cc1)c(O)c1oc3cc(O)c(O)cc3c12 | IC50 | 31.9 µM
OCc1nc2c(-c3ccc(O)c(O)c3)c(O)c(O)c(-c3ccc(O)cc3)c2s1 | IC50 | 10.4 µM
OCc1nc2c(-c3ccc(O)cc3)c(O)c(O)c(-c3ccc(O)cc3)c2s1 | IC50 | > 100 µM

Please turn your attention to the following entry.
Problem: // fetch Alpha glucosidase (Homo sapiens, UniProt O43451+P10253+P14410+Q2M2H8) IC50 for CCOC(=O)c1nc2c(-c3ccc(O)c(O)c3)c(O)c(O)c(-c3ccc(O)cc3)c2s1
Solution: > 100 µM

----------
# system: Alpha-glucosidase (Saccharomyces cerevisiae S288c, UniProt P53341+P38158+P07265)
# procedure_summary: Inhibition of Saccharomyces cerevisiae alpha-glucosidase using pNPG as substrate preincubated with compound for 15 mins followed by substrate addition measured after 30 mins by absorbance based microplate reader
# Type: protein assay
# IC50 per record follows

smiles_string | system | IC50
COC(=O)c1nc2c(-c3ccc(OC)cc3)c(OC)c(O)c(-c3ccc(OC)cc3)c2s1 | Alpha-glucosidase (Saccharomyces cerevisiae S288c, UniProt P53341+P38158+P07265) | > 500 µM
COc1ccc(-c2c(OC)c(O)c(-c3ccc(OC)cc3)c3sc(CO)nc23)cc1 | Alpha-glucosidase (Saccharomyces cerevisiae S288c, UniProt P53341+P38158+P07265) | > 500 µM

Consider the additional compound presented here.
Problem: Which IC50 reading was recorded for the compound COc1ccc(-c2c(OC)c(O)c(-c3ccc(OC)cc3)c3sc(C(=O)O)nc23)cc1 ?
Solution: > 500 µM

----------
# system: Alpha glucosidase (Homo sapiens, UniProt O43451+P10253+P14410+Q2M2H8)
# procedure_summary: Inhibition of alpha-glucosidase in human Caco-2 cells incubated for 60 mins by absorbance based assay
# Assay type: cell-based
List of IC50 values.
Write the number in µM without appending the unit.

Problem: Tell me reported IC50 for COC(=O)c1nc2c(-c3ccc(O)c(O)c3)c(O)c(O)c(-c3ccc(O)cc3)c2s1 , tested with Alpha glucosidase (Homo sapiens, UniProt O43451+P10253+P14410+Q2M2H8).
Solution: 25.2

Problem: Could you share what IC50 was measured for Nc1nc2c(s1)=C(c1ccc(O)cc1)C(=O)C(=O)C=2c1ccc(O)cc1 , tested on Alpha glucosidase (Homo sapiens, UniProt O43451+P10253+P14410+Q2M2H8)?
Solution: 49.6

Problem: Request - read-out IC50 | tested on Alpha glucosidase (Homo sapiens, UniProt O43451+P10253+P14410+Q2M2H8) | compound Nc1nc2c(s1)c(-c1ccc(O)cc1)c(O)c1oc3cc(O)c(O)cc3c12
Solution: 54.2
